B1: ADD1 (parent)
chain: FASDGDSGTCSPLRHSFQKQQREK

Variants of: B1
Assay: protein stability index of a GFP-peptide fusion (GPS, HEK-293T) (PSI 1-6); higher = more stable;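 note: lentivirally expressed fusions sorted by FACS into six bins by GFP to DsRed ratio, PSI derived from sequencing read proportions per bin multiplied by bin number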
Settings: c terminus: a fixed tail appended
Label y when protein stability index is at or above 3; otherwise label n.

Query string: Does the reported protein stability index for FASDGDSGTCSPLRHSFQKQMREK [Q21M] fall at or above the 3 mark?
Result string: y

Query string: API: above_or_equal(metric=protein stability index, cutoff=3) for item FASDGASGTCSPLRHSFQKQQREK [D6A]
Result string: n

Query string: Check this variant for protein stability index at or above 3: FASDGDSGTCSPLRHSFQKQQRFK [E23F]
Result string: n

Query string: // inclusive: protein stability index at least 3? input: FASDGDSGTCSPLRHSIQKQQREK [F17I]
Result string: y

Query string: Decide: protein stability index of FASDGFSGTCSPLRHSFQKQQREK [D6F] >= 3?
Result string: n

Query string: Please indicate if the recorded protein stability index for FASDGDSGTCSPLRHSFQKQQPEK [R22P] meets or exceeds 3.
Result string: y

Query string: Determine whether this variant has protein stability index no lower than 3: FASDGDSGTCSPLRHSFQKQQRKK [E23K]
Result string: y

Query string: Given the entry FASDGDSGTCSPLRHRFQKQQREK [S16R] , answer whether its protein stability index meets or surpasses 3.
Result string: y

Query string: Decide: protein stability index of FASDGDSGTQSPLRHSFQKQQREK [C10Q] >= 3?
Result string: y

Query string: Has FASDGDSGLCSPLRHSFQKQQREK [T9L] a recorded protein stability index greater than or equal to 3?
Result string: y

All figures here come from the supplement of paper PMC10567573.
